Target: Follistatin (Homo sapiens) (UniProt P19883)
Sequence (P19883 whole entry, looked up): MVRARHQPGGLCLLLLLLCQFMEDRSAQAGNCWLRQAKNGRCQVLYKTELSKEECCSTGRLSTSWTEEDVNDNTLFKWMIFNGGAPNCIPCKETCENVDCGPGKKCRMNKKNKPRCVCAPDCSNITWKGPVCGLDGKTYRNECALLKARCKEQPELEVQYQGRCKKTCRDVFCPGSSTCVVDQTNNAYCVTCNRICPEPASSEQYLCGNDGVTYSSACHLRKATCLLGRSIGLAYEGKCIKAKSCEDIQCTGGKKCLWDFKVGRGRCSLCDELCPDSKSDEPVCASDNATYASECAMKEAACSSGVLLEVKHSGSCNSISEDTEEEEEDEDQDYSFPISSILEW
Assay: follistatin binders on small-molecule microarrays, primary screen, biochemical, small-molecule microarray, 635/667 nm fluorescence (AID 1132)
Conditions: FST binding, 635 nm fluorescence, higher = more signal
Response key: True means composite z-score >= 0.7; False means composite z-score < 0.7.

# compound, cat
rows = [
    ("O=C(CCCCCCC(=O)Nc1ccccc1)N/N=C/c1ccccc1", "False"),
    ("O=C1O[C@@H](c2ccccc2)[C@@H](c2ccccc2)N2[C@@H](c3ccccc3OCCO)[C@]3(C(=O)Nc4ccc(C#CCCO)cc43)[C@@H](C(=O)Nc3nc4ccccc4s3)[C@H]12", "True"),
    ("CC[C@H]1C2=C3C(CC[C@H]4C(OCc5ccc(F)cc5C(F)(F)F)OC[C@](C)([C@@H]34)N(C(=O)OC(C)(C)C)C2)C2COC(=O)OCC21 (stereo partly drawn)", "False"),
    ("COc1ccc(C#Cc2ccc3c(c2)[C@]2(C(=O)N3)[C@H](C(=O)N3CCc4cc(OC)c(OC)cc4C3)[C@H]3C(=O)O[C@H](c4ccccc4)[C@H](c4ccccc4)N3[C@@H]2c2ccc(O)cc2)cc1", "True"),
    ("CCOC(=O)C[C@H]1[C@H](OC(=O)c2ccc(-c3ccccc3)cc2)[C@@H](NC(=O)c2ccc3ccccc3c2)c2cc(OCCCO)ccc2N1C(=O)c1ccc2ccccc2n1", "False"),
    ("COc1ccc(C(O)C2C=CC3C(=O)N(Cc4ccccc4)C(=O)C3N2n2cnnc2)c2ccccc12 (stereo not drawn)", "False"),
    ("COC(=O)C1(Cc2ccccc2)C=C2C(=C(c3ccccc3)C(=O)C2C)CN1 (stereo not drawn)", "False"),
    ("COCCCNC(=O)[C@@H]1c2ccccc2C(=O)N(Cc2ccccc2C(F)(F)F)[C@H]1c1ccc(CO)cc1", "False"),
    ("C=CCN1Cc2ccccc2C[C@@]2(N=C(c3ccc(OCCCO)cc3)O[C@H]2c2ccccc2)C1=O", "True"),
    ("COC(=O)[C@@]1(Cc2ccccc2)[C@H]2c3cc(C(=O)N4CCCC4)n(Cc4ccsc4Br)c3C[C@H]2CN1C(=O)c1ccccc1", "False"),
    ("CCCNC(=O)[C@@]1(c2ccc([N+](=O)[O-])cc2)CC(=O)N(C2CCCCC2)[C@@H]1c1ccc(CO)cc1I", "True"),
    ("C=C(C(=O)CC[C@H](OC(=O)c1cccnc1)c1ccc(CO)o1)C(C)C", "True"),
    ("COc1cc(CO)cc(I)c1O[C@H]1C=C(C(=O)NCCO)C[C@@H](NCc2ccccc2F)[C@@H]1O", "False"),
]

---

Overview of recorded composite z-score for various compounds
Test: binders of probe aFSTL3 on microarray, primary screen, stem cell growth factor project, biochemical, small-molecule microarray, fluorescence 635/667 (AID 1064);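 note: measures binding of the biotinylated anti-FSTL3 antibody to printed compounds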
Details: higher = more signal
readout_kind: composite z-score

# compound, value_observed
measured = [
    ("CCOC(=O)C1=CC[C@@H](c2cc(Cl)ccc2Cl)N(S(=O)(=O)c2ccc(C)cc2)[C@H]1c1ccc(OC)cc1", 0.522),
    ("CCCC[C@@H]1C[C@H]1[C@@H](NC(=O)c1cccnc1)c1ccc(-c2ccccc2)cc1", 0.684),
    ("C=C[C@@H](COC(C)=O)NS(=O)(=O)c1ccc(Br)cc1", -0.35),
    ("C=CCC(OC(C)=O)[C@@H]1[C@@H](N(Cc2ccc(-c3ccccc3)cc2)C(=O)c2cccc3ccccc23)c2cc(OCCCO)ccc2N1C(=O)Cc1ccc2ccccc2c1 (some centres not stated)", -0.144),
    ("CC(=O)NCCCC[C@@H]1NC(=O)[C@@H]2C[C@H](C(=O)O)[C@H](c3ccc(O)cc3)N2C1=O", 0.736),
    ("CC[C@@H]1[C@H]2C3C(=O)N(CC)C(=O)C3CC(=O)[C@H]2[C@H](c2ccc(C)cc2)N1S(=O)(=O)c1ccc(C)cc1 (some centres not stated)", -0.0209),
    ("COc1ccc([Si](C)(C)[C@@H]2[C@@H](CCO)O[C@]3(C(=O)N(Cc4cccc(N5C(=O)c6ccccc6Oc6ccccc65)c4)c4ccccc43)[C@H]2C)cc1", 0.393),
]
